Recorded values, source patent US20240269276A1.

- system.tested: T1, human PD-L1 protein with histidine tag (ACROBiosystems #PD-1-H5258) (human, UniProt Q9NZQ7 19-238)
- T1 construct: Bought protein; also called His PD-L1; human PD-L1 proteins; not shown: histidine tag
- experiment.notes: BLI (Octet Red96e); His-tagged human PD-L1 captured on HIS1K sensor, antibody at 60 nM; 1:1 fit
measurement.type: Kd

Report Kd, nothing else, for this binder: PR005878 (antibody, human IgG1, V domains shown, The HC entry is used) VH: QVQLVESGGGVVQPGMSLRLSCAASGFTFSSYGMYWVRQAPGKGQEWVASIRYTGTEKHYADSVKGRFTISRDNSKNTLYLEMNSLRVEDTAVYYCAKNRALFGVIPDDSDIRGQGTMVTVSS
0.671 nM

Report Kd, nothing else, for this binder: PR005875 (antibody, human IgG1, V domains shown, The HC entry is used) VH: QVQLVESGGGVVQPGMSLRLSCAASGFTFSSYGMYWVRQAPGKGQEWVASIRYTGTEKHYADSVKGRFTISRDNSKNTLYLEMNSLRVEDTAVYYCAKNRALFGVIPDASDIRGQGTMVTVSS
1.04 nM

Report Kd, nothing else, for this binder: PR006248 (antibody, human IgG1, V domains shown, The HC entry is used) VH: QVQLVESGGGVVQPGMSLRLSCAASGFDFSSYGMYWVRQAPGKGQEWVASIRYTGTEKHYADSVKGRFTISRDNSKNTLYLEMNSLRVEDTAVYYCAKNRALFGVIPDDSDIRGQGTMVTVSS
0.634 nM

Report Kd, nothing else, for this binder: PR006247 (antibody, human IgG1, V domains shown, The HC entry is used) VH: QVQLVESGGGVVQPGMSLRLSCAASGFDFSSYGMYWVRQAPGKGQEWVASIRYTGTEKHYADSVKGRFTISRDNSKNTLYLEMNSLRVEDTAVYYCAKNRALFGVIPDASDIRGQGTMVTVSS
1.18 nM

Report Kd, nothing else, for this binder: PR005867 (antibody, human IgG1, V domains shown, The HC entry is used) VH: QVQLVESGGGVVQPGMSLRLSCAASGFTFSSYGMYWVRQAPGKGQEWVAIIWYDGTKKHYADSVKGRFTISRDNSKNTLYLEMNSLRVEDTAVYYCAKNRAIFGVIPDDSDIRGQGTMVTVSS
1.85 nM

---
Report Kd, nothing else, for this binder: PR005872 (antibody, human IgG1, V domains shown, The HC entry is used) VH: QVQLVESGGGVVQPGMSLRLSCAASGFTFSSYGMYWVRQAPGKGQEWVASIRYTGTEKHYADSVKGRFTISRDNSKNTLYLEMNSLRVEDTAVYYCAKNRAIFGVIPDDSDIRGQGTMVTVSS
0.861 nM

Report Kd, nothing else, for this binder: PR006246 (antibody, human IgG1, V domains shown, The HC entry is used) VH: QVQLVESGGGVVQPGMSLRLSCAASGFDFSSYGMYWVRQAPGKGQEWVASIRYTGTEKHYADSVKGRFTISRDNSKNTLYLEMNSLRVEDTAVYYCAKNRAIFGVIPDDSDIRGQGTMVTVSS
0.546 nM

Report Kd, nothing else, for this binder: PR006245 (antibody, human IgG1, V domains shown, The HC entry is used) VH: QVQLVESGGGVVQPGMSLRLSCAASGFDFSSYGMYWVRQAPGKGQEWVASIRYTGTEKHYADSVKGRFTISRDNSKNTLYLEMNSLRVEDTAVYYCAKNRAIFGVVPDASDIRGQGTMVTVSS
1.09 nM
